Assay: Inhibition of recombinant human sPLA2 using [1-14C]oleate-labelled autoclaved Escherichia coli as substrate measured after 15 mins
VALUE_KIND: IC50 (µM)
# value in µM; strip the unit string

Entry CC(=O)O[C@H]1C[C@@H]2[C@@]3(C)CCCC(C)(C)[C@@H]3CC[C@@]2(C)[C@@H]2CC=C(C=O)[C@H](C=O)[C@@]12C [SCALARADIAL] : reported IC50 = ? 5.4

----------
Molecular target: Transient receptor potential cation channel subfamily M member 2 (Homo sapiens)
Experiment: Inhibition of human FLAG-tagged TRPM2 expressed in HEK293 cells assessed as reduction in H2O2-induced intracellular calcium flux pretreated for 30 secs followed by H2O2 addition measured for 120 secs by […]
Format: cell-based
Record form. Attribute: pIC50. Fill in for each entry.
Value format note: pIC50 is -log10 of concentration (mol/L); just state the number.

Hello, I am looking for reported pIC50 with Transient receptor potential cation channel subfamily M member 2 (Homo sapiens) for CN(C)CC(=O)Nc1ccc2[nH]c(=O)c3ccccc3c2c1 . Could you help? 7.60

Kindly state the measured pIC50 obtained for O=C1NCCc2c(OCCCCN3CCCCC3)cccc21 with Transient receptor potential cation channel subfamily M member 2 (Homo sapiens). 6.22

----------
Target: Transient receptor potential cation channel subfamily M member 2 (Homo sapiens, UniProt O94759)
Sequence (O94759 whole entry): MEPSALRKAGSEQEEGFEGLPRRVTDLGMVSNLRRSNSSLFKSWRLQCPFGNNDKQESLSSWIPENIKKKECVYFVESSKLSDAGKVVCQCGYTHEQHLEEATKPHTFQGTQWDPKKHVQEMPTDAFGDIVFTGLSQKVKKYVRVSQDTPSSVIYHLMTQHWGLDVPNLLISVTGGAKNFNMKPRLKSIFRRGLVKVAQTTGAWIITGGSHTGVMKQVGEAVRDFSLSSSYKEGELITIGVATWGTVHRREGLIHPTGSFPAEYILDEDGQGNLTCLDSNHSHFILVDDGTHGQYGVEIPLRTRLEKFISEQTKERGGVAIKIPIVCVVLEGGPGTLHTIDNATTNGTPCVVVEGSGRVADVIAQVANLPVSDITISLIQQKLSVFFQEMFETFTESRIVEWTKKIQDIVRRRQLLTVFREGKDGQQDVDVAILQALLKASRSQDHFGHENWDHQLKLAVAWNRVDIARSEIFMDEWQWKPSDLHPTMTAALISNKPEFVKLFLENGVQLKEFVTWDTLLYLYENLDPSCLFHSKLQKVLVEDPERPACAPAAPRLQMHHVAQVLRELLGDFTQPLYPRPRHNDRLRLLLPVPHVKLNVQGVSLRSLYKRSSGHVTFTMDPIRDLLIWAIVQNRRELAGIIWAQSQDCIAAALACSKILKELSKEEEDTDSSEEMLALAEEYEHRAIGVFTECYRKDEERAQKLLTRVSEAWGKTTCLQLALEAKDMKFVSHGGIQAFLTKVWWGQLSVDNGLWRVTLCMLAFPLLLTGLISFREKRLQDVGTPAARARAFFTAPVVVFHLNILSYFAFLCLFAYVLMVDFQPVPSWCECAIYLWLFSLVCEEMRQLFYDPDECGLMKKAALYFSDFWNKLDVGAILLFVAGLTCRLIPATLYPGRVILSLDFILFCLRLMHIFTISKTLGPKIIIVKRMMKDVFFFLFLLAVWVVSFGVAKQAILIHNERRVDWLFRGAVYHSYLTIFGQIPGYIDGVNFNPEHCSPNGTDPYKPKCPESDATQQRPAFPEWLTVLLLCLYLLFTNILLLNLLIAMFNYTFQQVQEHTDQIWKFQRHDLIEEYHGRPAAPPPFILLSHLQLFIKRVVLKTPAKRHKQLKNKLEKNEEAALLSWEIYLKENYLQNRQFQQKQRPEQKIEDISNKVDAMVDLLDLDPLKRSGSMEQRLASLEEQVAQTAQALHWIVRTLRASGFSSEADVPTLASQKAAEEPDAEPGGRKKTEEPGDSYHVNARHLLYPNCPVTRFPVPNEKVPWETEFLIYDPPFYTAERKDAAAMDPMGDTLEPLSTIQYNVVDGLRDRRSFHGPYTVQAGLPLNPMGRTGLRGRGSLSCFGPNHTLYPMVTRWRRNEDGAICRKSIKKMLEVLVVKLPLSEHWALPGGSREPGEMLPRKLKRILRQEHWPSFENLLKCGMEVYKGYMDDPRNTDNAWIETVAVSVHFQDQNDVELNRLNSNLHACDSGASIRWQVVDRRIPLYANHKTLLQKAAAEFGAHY
Assay: Inhibition of human TRPM2 expressed in HEK293 cells assessed as reduction in ADPR-induced intracellular calcium flux at 0 mV holding potential by whole cell patch clamp electrophysiology method
Assay type: cell-based
VALUE_KIND: IC50
Could you kindly put the unit after your number?

// returns reported IC50 for input CCCCCc1ccc(/C=C/C(=O)Nc2ccccc2C(=O)O)cc1 4.5 µM
